Data provenance is patent US20250340630A1.

TESTED_TARGET: human Claudin18.2 (human, UniProt P56856-2 1-261)
PROTOCOL_NOTES: cell-based or functional assay
Param label: returns Criterion met when ADCC EC50, Ba/F3-Claudin18.2 target cells, NK-92MI_mCD16 effectors < 0.1 µg/mL, returns Criterion not met otherwise, including exact equality.

{"BINDER": "humanized antibody 1E9.2-hz41 (antibody, human IgG1, kappa, V domains shown, Human IgG1 / kappa constant regions) VH: EVQLVESGGGLVKPGGSLRLSCAASGFSFSNSAMSWVRQAPGKGLEGVATISSGDSYTYYPDSVKGRFTISRDNAKNSLYLQMNSLRAEDTAVYYCARQGYGNALDYWGQGTLVTVSS VL: DIVMTQSPDSLAVSLGERATINCKSSQSLLNSGNQKNYLTWYQQKPGQPPKLLIYWSSTRESGVPDRFSGSGSGTDFTLTISSLQAEDFAVYYCQNDYYYPLTFGGGTKVEIKR", "GROUP_LABEL": "Criterion met"}
{"BINDER": "humanized antibody 1E9.2-hz12 (antibody, human IgG1, kappa, V domains shown, Human IgG1 / kappa constant regions) VH: EVQLVESGGGLVKPGGSLRLSCAASGFSFSNSAMSWVRQAPGKGLEWVSTISSGDSYTYYADSVKGRFTISRDNAKNSLYLQMNSLRAEDTAVYYCARQGYGNALDYWGQGTLVTVSS VL: DIVMTQSPDSLAVSLGERATINCKSSQSLLQSGNQKNYLTWYQQKPGQPPKLLIYWSSTRESGVPDRFSGSGSGTDFTLTISSLQAEDFAVYYCQNDYYYPLTFGGGTKVEIKR", "GROUP_LABEL": "Criterion met"}
{"BINDER": "chimeric antibody 1E9.2-hz00 (antibody, human IgG1, kappa, V domains shown, Mouse variable regions on human IgG1 / kappa constant regions; expressed in Expi293F; also called 1E9.2 chimeric antibody) VH: EVMLVESGGGLVKPGGSLKLSCAASGFSFSNSAMSWVRQTPEKRLEGVATISSGDSYTYYPDSVKGRFTISRDNAKNSLYLQMSSLRSEDTAVYYCARQGYGNALDYWGQGTSVTVSS VL: DIVMTQSPSSLTVTAGEKVTMSCKSSQSLLNSGNQKNYLTWYQQKPGQPPKLLIYWSSTRESGVPDRFTGSGSGTDFTLTISSVQAEDLAVYYCQNDYYYPLTFGAGTKLELKR", "GROUP_LABEL": "Criterion met"}
{"BINDER": "IMAB362 (antibody, V domains shown) VH: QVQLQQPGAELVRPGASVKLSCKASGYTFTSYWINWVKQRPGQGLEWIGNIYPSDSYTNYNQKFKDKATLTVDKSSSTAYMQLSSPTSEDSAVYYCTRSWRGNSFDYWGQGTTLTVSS VL: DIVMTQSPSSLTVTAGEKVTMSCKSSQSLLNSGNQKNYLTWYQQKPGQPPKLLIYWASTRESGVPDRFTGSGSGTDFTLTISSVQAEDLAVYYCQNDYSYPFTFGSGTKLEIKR", "GROUP_LABEL": "Criterion not met"}
{"BINDER": "humanized antibody 1E9.2-hz17 (antibody, human IgG1, kappa, V domains shown, Human IgG1 / kappa constant regions) VH: EVQLVESGGGLVKPGGSLRLSCAASGFSFSNSAMSWVRQAPGKGLEWVSTISSGDSYTYYADSVKGRFTISRDNAKNSLYLQMNSLRAEDTAVYYCARQGYGNALDYWGQGTLVTVSS VL: DIVMTQTPLSLPVTPGEPASISCKSSQSLLQSGNGKNYLTWYLQKPGQSPQLLIYWSSTRESGVPDRFSGSGSGTDFTLKISRVEAEDFGVYYCQNDYYYPLTFGGGTKVEIKR", "GROUP_LABEL": "Criterion not met"}
